Ki reference
tested.system: recombinant human ALK5 (TGF-βR1) protein (Homo sapiens, UniProt P36897)
Construct: purchased Life Technologies PR9075A
Sequence (P36897 34-503): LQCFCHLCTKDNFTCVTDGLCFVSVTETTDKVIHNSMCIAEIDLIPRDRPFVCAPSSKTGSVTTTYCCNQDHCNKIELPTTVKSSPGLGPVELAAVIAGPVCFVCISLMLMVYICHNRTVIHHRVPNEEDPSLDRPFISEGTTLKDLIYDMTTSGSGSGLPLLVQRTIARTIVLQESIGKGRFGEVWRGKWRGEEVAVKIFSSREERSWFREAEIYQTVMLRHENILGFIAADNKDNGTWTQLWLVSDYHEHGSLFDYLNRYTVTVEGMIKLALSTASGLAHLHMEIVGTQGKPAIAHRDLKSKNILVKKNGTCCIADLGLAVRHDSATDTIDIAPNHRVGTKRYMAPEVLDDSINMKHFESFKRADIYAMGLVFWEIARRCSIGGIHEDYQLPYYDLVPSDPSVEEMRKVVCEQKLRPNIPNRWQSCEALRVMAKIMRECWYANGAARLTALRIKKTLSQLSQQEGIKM
protocol.text: Biochemical ALK5 (TGF-βR1) assay to measure pKi (LANCE Ultra ULight kinase assay)
condition.context: apparent pKi from pIC50 by Cheng-Prusoff, read-out: ALK5 pKi (converted)

compound	tested.system	property	value.observed
Cc1cccc(-c2[nH]cnc2-c2ccc3ncc(C(=O)OCCCN4CCC5(CC4)CNC5)cc3c2)n1	recombinant human ALK5 (TGF-βR1) protein (Homo sapiens, UniProt P36897)	Ki	0.0398 to 0.316 nM
Cc1cccc(-c2n[nH]cc2-c2ccc3ncc(-c4ccc[nH]4)cc3n2)n1	recombinant human ALK5 (TGF-βR1) protein (Homo sapiens, UniProt P36897)	Ki	< 0.0316 nM
Cc1cccc(-c2n[nH]cc2-c2ccc3ncc(-c4coc(CCN5CCNCC5)n4)cc3n2)n1	recombinant human ALK5 (TGF-βR1) protein (Homo sapiens, UniProt P36897)	Ki	0.0398 to 0.316 nM
Cc1nc(-c2n[nH]cc2-c2ccc3ncc(-c4cnn(CC5CNC5)c4)cc3n2)ccc1F	recombinant human ALK5 (TGF-βR1) protein (Homo sapiens, UniProt P36897)	Ki	< 0.0316 nM
Cc1cccc(-c2[nH]cnc2-c2ccc3ncc(-c4ccc5c(c4)CCC5N)cc3c2)n1 (stereo not shown)	recombinant human ALK5 (TGF-βR1) protein (Homo sapiens, UniProt P36897)	Ki	0.0398 to 0.316 nM

Problem: Form: Entry = `Cc1cccc(-c2n[nH]cc2-c2ccc3nccc(-c4cn[nH]c4)c3n2)n1` | System = recombinant human ALK5 (TGF-βR1) protein (Homo sapiens, UniProt P36897) | Ki = ____
Result: 0.0398 to 0.316 nM

Problem: For the record Cc1nc(-c2nc3ccccn3c2-c2ccc3ncc(N4CCC(N(C)C)C4)cc3n2)ccc1F (racemic) , what value of Ki is listed for recombinant human ALK5 (TGF-βR1) protein (Homo sapiens, UniProt P36897)?
Result: 0.0398 to 0.316 nM

Problem: What reported Ki corresponds to `Cc1nc(-c2n[nH]cc2-c2ccc3ncc(-c4nc(C)c(CCN)[nH]4)cc3n2)ccc1F` on recombinant human ALK5 (TGF-βR1) protein (Homo sapiens, UniProt P36897)?
Result: 0.0398 to 0.316 nM

Problem: Recorded Ki for `Cc1cccc(-c2n[nH]cc2-c2ccc3ncc(-c4cc5n(n4)CCN5)cc3n2)n1` with recombinant human ALK5 (TGF-βR1) protein (Homo sapiens, UniProt P36897), please?
Result: < 0.0316 nM

Problem: What value of Ki on recombinant human ALK5 (TGF-βR1) protein (Homo sapiens, UniProt P36897) does `Cc1cccc(-c2[nH]cnc2-c2ccc3ncc(N4CCC(C(=O)O[C@@H]5CCN(C)C5)CC4)cc3c2)n1` have?
Result: 0.0398 to 0.316 nM

Problem: Any idea what Ki came out for `CNC1CN(c2cnc3ccc(-c4c[nH]nc4-c4cccc(C)n4)nc3c2)C1` on recombinant human ALK5 (TGF-βR1) protein (Homo sapiens, UniProt P36897)?
Result: 0.0398 to 0.316 nM

Problem: Field: Ki (recombinant human ALK5 (TGF-βR1) protein (Homo sapiens, UniProt P36897)). Entry: Cc1cccc(-c2[nH]cnc2-c2ccc3ncc(C(=O)OCCN4CCN5CCCC5C4)cc3c2)n1 (stereo not shown)
Result: 0.0398 to 0.316 nM

Problem: Kindly state the measured Ki obtained for `Cc1cccc(-c2[nH]cnc2-c2ccc3ncc(-c4cccc(NC5CCNCC5)c4)cc3c2)n1` with recombinant human ALK5 (TGF-βR1) protein (Homo sapiens, UniProt P36897).
Result: < 0.0316 nM

Problem: Kindly state the measured Ki obtained for `Cc1cccc(-c2n[nH]c(N)c2-c2ccc3ncc(N4CCNCC4)cc3n2)n1` with recombinant human ALK5 (TGF-βR1) protein (Homo sapiens, UniProt P36897).
Result: 0.398 to 3.16 nM

Problem: Hello, I am looking for reported Ki with recombinant human ALK5 (TGF-βR1) protein (Homo sapiens, UniProt P36897) for `Cc1cccc(-c2[nH]cnc2-c2ccc3ncc(-c4cccc(C(=O)OC5CCNCC5)n4)cc3c2)n1` . Could you help?
Result: 0.0398 to 0.316 nM

Problem: I'm curious: which Ki was measured for `Cc1cccc(-c2[nH]cnc2-c2ccc3ncc(-c4ncc(C(=O)O[C@@H]5CCNC5)cn4)cc3c2)n1` tested on recombinant human ALK5 (TGF-βR1) protein (Homo sapiens, UniProt P36897)?
Result: 0.0398 to 0.316 nM

All values here come from patent US11590116B2.
